Hello, the source for this data is ChEMBL document CHEMBL1155909, in case you need it.

# Protocol notes: Half life in rat at 0.3 mg/kg, iv
# Assay type: ADME, organism-based
# Parameters: dose 0.3 mg/kg, route intravenous
# Protocol conditions: in vivo
Test readout: half-life

> print(dat)
                           structure.smiles  test.readout  obs.value
1  COc1cc2c(cc1CN[C@H]1CCCN[C@H]1c1ccccc1)[C@](C)(C(F)(F)F)OCC2     half-life      8.8 h

====

# Target or test system: Sodium channel protein type 2 subunit alpha (Rattus norvegicus, UniProt P04775)
# Sequence (P04775 whole entry): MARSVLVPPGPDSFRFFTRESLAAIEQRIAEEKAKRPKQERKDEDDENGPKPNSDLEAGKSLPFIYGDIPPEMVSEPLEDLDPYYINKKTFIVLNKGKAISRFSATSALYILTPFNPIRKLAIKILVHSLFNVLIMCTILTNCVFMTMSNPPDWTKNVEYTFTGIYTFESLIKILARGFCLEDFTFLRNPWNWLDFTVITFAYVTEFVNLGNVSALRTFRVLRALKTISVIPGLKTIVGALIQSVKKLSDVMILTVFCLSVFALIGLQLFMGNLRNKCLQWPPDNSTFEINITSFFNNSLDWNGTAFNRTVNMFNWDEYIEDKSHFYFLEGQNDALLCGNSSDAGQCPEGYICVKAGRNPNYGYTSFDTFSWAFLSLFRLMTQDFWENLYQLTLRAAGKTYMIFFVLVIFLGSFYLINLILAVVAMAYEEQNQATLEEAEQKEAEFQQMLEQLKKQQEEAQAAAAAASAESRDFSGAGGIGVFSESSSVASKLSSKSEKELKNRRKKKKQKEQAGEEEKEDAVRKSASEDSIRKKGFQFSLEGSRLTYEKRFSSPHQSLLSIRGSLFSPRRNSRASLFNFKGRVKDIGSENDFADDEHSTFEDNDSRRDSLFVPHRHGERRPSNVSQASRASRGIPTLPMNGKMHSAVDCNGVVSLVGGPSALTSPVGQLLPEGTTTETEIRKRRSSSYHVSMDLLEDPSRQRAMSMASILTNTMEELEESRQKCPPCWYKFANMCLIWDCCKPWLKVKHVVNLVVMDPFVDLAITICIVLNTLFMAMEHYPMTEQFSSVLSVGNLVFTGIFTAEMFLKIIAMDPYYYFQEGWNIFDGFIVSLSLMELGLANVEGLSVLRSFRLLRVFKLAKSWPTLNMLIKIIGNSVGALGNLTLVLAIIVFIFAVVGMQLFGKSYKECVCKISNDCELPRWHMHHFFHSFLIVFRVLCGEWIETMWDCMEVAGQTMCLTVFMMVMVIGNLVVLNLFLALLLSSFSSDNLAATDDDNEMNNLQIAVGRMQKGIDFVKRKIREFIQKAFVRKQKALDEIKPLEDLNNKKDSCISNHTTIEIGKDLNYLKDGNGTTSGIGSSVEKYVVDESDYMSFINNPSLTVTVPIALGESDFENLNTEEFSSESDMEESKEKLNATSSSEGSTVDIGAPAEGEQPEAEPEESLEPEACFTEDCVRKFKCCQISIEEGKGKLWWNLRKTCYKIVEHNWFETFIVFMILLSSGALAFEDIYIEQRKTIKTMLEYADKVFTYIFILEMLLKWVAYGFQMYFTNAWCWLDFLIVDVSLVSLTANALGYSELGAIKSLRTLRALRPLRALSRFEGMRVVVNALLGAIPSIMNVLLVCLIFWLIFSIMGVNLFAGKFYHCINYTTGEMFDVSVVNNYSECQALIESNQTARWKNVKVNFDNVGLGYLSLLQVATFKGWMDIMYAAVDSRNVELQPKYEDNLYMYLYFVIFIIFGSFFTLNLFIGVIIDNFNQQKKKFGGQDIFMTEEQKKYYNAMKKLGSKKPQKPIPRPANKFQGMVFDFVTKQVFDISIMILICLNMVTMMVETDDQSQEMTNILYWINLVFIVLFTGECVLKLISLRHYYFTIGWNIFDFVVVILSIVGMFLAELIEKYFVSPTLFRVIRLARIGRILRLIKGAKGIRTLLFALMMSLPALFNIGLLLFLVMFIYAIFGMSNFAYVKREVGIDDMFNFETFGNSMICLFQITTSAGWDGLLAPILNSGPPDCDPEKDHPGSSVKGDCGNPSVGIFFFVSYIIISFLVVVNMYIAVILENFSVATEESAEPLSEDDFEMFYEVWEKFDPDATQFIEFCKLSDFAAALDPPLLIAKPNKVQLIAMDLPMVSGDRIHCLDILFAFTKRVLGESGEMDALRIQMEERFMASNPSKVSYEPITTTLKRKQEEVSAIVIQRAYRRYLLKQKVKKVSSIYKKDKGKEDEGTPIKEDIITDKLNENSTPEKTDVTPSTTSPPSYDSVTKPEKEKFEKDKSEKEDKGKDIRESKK
# Protocol notes: Displacement of [3H]batrachotoxinin from rat sodium channel type 2A subunit expressed in CHO-CNa2A cells […]
Test readout: IC50

> print(dat)
                           structure.smiles  obs.value
1  COc1cc2c(cc1CN[C@H]1CCCN[C@H]1c1ccccc1)[C@](C)(C(F)(F)F)OCC2      48 nM
